- Test system: KM12 colon
- method_description: NCI tumour cell line growth inhibition, 48 h
Measured TGI accompanies every entry in the list below.

Solved cases below.
compound: CCOC(=O)/C(O)=C(/C(=O)OC)c1ccc(Cl)cc1
system_name: KM12 colon
TGI: > 100 µM
--
compound: Cc1n(Cc2ccccc2)nc2sc(N)n[n+]12
system_name: KM12 colon
TGI: > 100 µM
--
compound: CCN1C(=O)N(CC)C2C1NN=c1s/c(=C\c3ccccn3)c(=O)n12 (stereo unspecified)
system_name: KM12 colon
TGI: > 100 µM
--
compound: CC1=C(C)SC(=C2Sc3nc(O)[nH]c(=O)c3S2)S1
system_name: KM12 colon
TGI: > 100 µM
--
compound: CC(C)CCNCC(O)Cn1c2ccccc2c2ccccc21 (stereo unspecified)
system_name: KM12 colon
TGI: 14.4 µM

Note: attention shifts to another entry.
Input CCOC(=O)c1nc2ccc(C(F)(F)F)cc2nc1Oc1ccc(C(=O)OC)cc1 , output reported TGI.
> 100 µM

---

Each item that follows carries a reported TGI.
- System: HS 578T breast
- method_description: NCI tumour cell line growth inhibition, 48 h

Please review the following examples before continuing.
compound: NCCN.O=C([O-])CN1CCOCC1.[OH-].[Pt+4]
TGI: > 100 µM
--
compound: O=CN1CCN(C(=O)c2ccc(Cl)c(Cl)c2)C1=S
TGI: > 100 µM
--
compound: CCN1C(=O)N(CC)C2C1NN=c1s/c(=C\c3ccccn3)c(=O)n12 (configuration not stated)
TGI: > 100 µM
--
compound: Cn1cc(-c2csc(-c3cn(C)c4ccccc34)n2)c2ccccc21
TGI: > 100 µM
--
compound: O=C1c2ccc3c4c(ccc(c24)C(=O)N1CCCNCc1ccccc1Cl)C(=O)N(CCCNCc1ccccc1Cl)C3=O
TGI: 11.9 µM
--
compound: ON=C(CC(O)(C(F)(F)Cl)C(F)(F)Cl)CC(O)(C(F)(F)Cl)C(F)(F)Cl
TGI: > 10 µM

From here, focus on the item given below.
Give TGI for C[C@]12CC[C@@H]3c4ccc(O)cc4CC[C@H]3[C@@H]1Cc1cnc(N)nc12
40.7 µM

---

- System: NCI-H226 lung
- method_description: NCI tumour cell line growth inhibition, 48 h
quantity: TGI (µM)
Write it as a number; the unit µM goes unstated.

compound: CC(Oc1ccc(OCC2CCCCC2)cc1)C(=O)NCc1ccco1 (stereo not given)
system_name: NCI-H226 lung
measured_value: 94
//
compound: Cn1cc(-c2csc(-c3cn(CCCN4CCCCC4)c4ccccc34)n2)c2cccnc21
system_name: NCI-H226 lung
measured_value: 7.62
//
compound: O=C(c1cc2c(c3ccccc13)NC1(CCCCC1)N=C2C(F)(F)F)C(F)(F)F
system_name: NCI-H226 lung
measured_value: 11

Please turn your attention to the following entry.
Please report TGI for the following compound: CNC(=O)OCc1c2ccncc2c(C)c2c1[nH]c1ccc(OC)cc12
0.784

---

- System: EKVX NSCLC
- method_description: NCI tumour cell line growth inhibition, 48 h
Where a SMILES comes first, the peptide text is derived from it. [ ]: non-standard residue; d: D form.
A collection of compounds and their measured TGI

Study these solved cases before continuing.
compound: Cc1cnc(CNC(=O)c2c(=O)c3ccc(N4CCCN(C)CC4)nc3n3c2sc2ccccc23)cn1
TGI: 23.2 µM
//
compound: CC(=O)O[C@H]1CCC2[C@@H]3CCC4c5nonc5CC[C@]4(C)C3CC[C@@]21C (stereo partly drawn)
TGI: > 100 µM
//
compound: CC(C)C[C@H](NC(=O)[C@H](CC(C)C)NC(=O)[C@@H](Cc1c[nH]c2ccccc12)NC(=O)[C@H](Cc1ccccc1)NC(=O)[C@@H](Cc1c[nH]c2ccccc12)NC(=O)[C@H](CCC(N)=O)NC(=O)[C@H](CCC(N)=O)NC(=O)[C@H]1CCCN1C(=O)[C@@H](N)CCCCN)C(N)=O (H-K[dP]QQ[dW]F[dW]LL-NH2)
TGI: > 100 µM
//
compound: O=c1c(O)c(-c2ccc(O)c(O)c2)oc2cc(O)cc(O)c12
TGI: > 100 µM
//
compound: O=c1cc(-c2ccccc2)[nH]c2nccn12
TGI: > 10 µM
//
compound: CC1=CC2c3cccc4[nH]cc(c34)CC2N(C)C1 (stereo not drawn)
TGI: > 100 µM
//
compound: COC(=O)/C=C1/OC(c2ccc(OC)cc2)=C(Cl)C1=O
TGI: 39.4 µM
//
compound: COc1cccc(NC(=O)CC(=O)N2N=C(n3ccc4ccccc43)CC2c2ccccc2)c1 (stereo not drawn)
TGI: > 100 µM

Next item in the queue.
Check the records and state TGI for CCOC(=O)c1nc2ccc(C(F)(F)F)cc2nc1Oc1ccc(C(=O)OC)cc1
> 100 µM

Taken from PubChem BioAssay (NCI).
